# System: NCI-H522
# Assay Method Text: NCI tumour cell line growth inhibition, 48 h
Activity calls are given as the source filed them. Rule as the data show it: active = GI50 up to about 1.1 µM and inactive = higher.
Outcome codes: active, inactive

{"Compound": "O=C(CC1C=CCS1(=O)=O)NCc1ccccc1 (stereo not given)", "Assigned Category": "inactive"}
{"Compound": "[N-]=[N+]=NC1(Cc2ccccc2)C(=O)c2cccc3c2N(CCC3)C1=O (stereo not given)", "Assigned Category": "inactive"}
{"Compound": "CC(=O)OCC1OC(n2c3c(cc(C#N)c2=S)CCC3)C(OC(C)=O)C(OC(C)=O)C1OC(C)=O (stereo not given)", "Assigned Category": "inactive"}
{"Compound": "Cc1cc(Br)ccc1/N=N/c1c(C)nn(-c2ccccc2)c1-c1ccccc1", "Assigned Category": "inactive"}
{"Compound": "O=c1c2ccccc2nc(N/N=C/c2ccc([N+](=O)[O-])cc2)n1-c1ccccc1", "Assigned Category": "inactive"}
{"Compound": "CC(CCN)(CCN)[N+](=O)[O-]", "Assigned Category": "inactive"}
{"Compound": "C=CCC1=CC2(OC)C(=O)C(OC)(OC)C1C1C(OC)(OC)C(=O)C(OC)=CC12CC=C (stereo not given)", "Assigned Category": "inactive"}
{"Compound": "Nc1[nH]c(=O)[nH]c(=O)c1Cc1cccc(Cl)c1", "Assigned Category": "inactive"}
{"Compound": "C[n+]1cc2cc(O)c(O)cc2c2ccc3cc(O)c(O)cc3c21.c1ccncc1", "Assigned Category": "active"}
{"Compound": "CC(C)CCCC(C)[C@H]1CCC2[C@H]3C(CC[C@@]21C)[C@@]1(C)CCC=C[C@]12C[C@@H]2[C@@H]3O (stereo not given in full)", "Assigned Category": "inactive"}

* * *

# Tested on: UO-31
# Assay Method Text: NCI tumour cell line growth inhibition, 48 h
Activity calls are given as the source filed them. Cut-off read from the data, not from the text of the source: active = GI50 up to about 1.1 µM and inactive = higher.
Outcome codes: True for active, False for inactive

{"Compound": "Cc1ccccc1NC(=O)CC1C(=O)Nc2ccccc2[S+]1[O-] (stereo unspecified)", "Assigned Category": "False"}
{"Compound": "CCCCOc1ccc2c(c1)CC[C@@H]1[C@@H]2CC[C@]2(C)C(=O)N(CCCC)C(=O)C[C@@H]12", "Assigned Category": "False"}
{"Compound": "O=[N+]([O-])c1ccc(S(=O)(=O)N=Ic2ccccc2)cc1", "Assigned Category": "False"}
{"Compound": "O=C1c2ccccc2-c2c1c(-c1ccc(O)cc1O)nc1ccc3ccccc3c21", "Assigned Category": "False"}
{"Compound": "COC1C(O)=C2C(=O)OC(C)(O)/C=C/C=C\\C=C/C=C/C(c3ccccc3)NC(=O)/C=C/C=C/C=C/C=C/C2(C)C1O (stereo unspecified)", "Assigned Category": "True"}
{"Compound": "Cc1ccc(C(=O)Nc2ccc(CP(=O)(O)O)cc2CP(=O)(O)O)cc1NC(=O)Nc1cc(C(=O)Nc2ccc(CP(=O)(O)O)cc2CP(=O)(O)O)ccc1C", "Assigned Category": "False"}
{"Compound": "O=C(c1ccco1)N(C(=S)OC12CC3CC(CC(C3)C1)C2)c1ccccc1", "Assigned Category": "False"}
{"Compound": "CCc1ccccc1NC(=O)C(=O)C(C#N)c1c(Cl)cccc1Cl (stereo unspecified)", "Assigned Category": "False"}
{"Compound": "Cc1ccc(S(=O)(=O)N/N=C2/CCC3(O)CC2(C)CCC2[C@H]3CC2(C)C)cc1 (stereo partly specified)", "Assigned Category": "False"}
{"Compound": "CC1(C)CC[C@]2(C)[C@@H](O)C[C@]3(C)C(=CC[C@@H]4[C@@]5(C)CC[C@H](O)C(C)(C)[C@@H]5CC[C@]43C)[C@@H]2C1", "Assigned Category": "False"}
{"Compound": "Fc1ccc(OCc2nc3cc(C(F)(F)F)ccc3nc2-c2ccccc2)cc1", "Assigned Category": "False"}
{"Compound": "Cc1ccc(/C=C/C(=O)c2ccc(Cl)c(Cl)c2)cc1", "Assigned Category": "False"}
{"Compound": "COC1CCC2C(=O)CCCC2O1 (stereo unspecified)", "Assigned Category": "False"}
{"Compound": "Cc1ccc([N+](=O)[O-])cc1NC1=NCCO1", "Assigned Category": "False"}
{"Compound": "CCCCCCC(C)CCCCCCCCCCC(=O)O (stereo unspecified)", "Assigned Category": "False"}
{"Compound": "NCCCCNOCCCN", "Assigned Category": "False"}
{"Compound": "O=C1CC(c2c(-c3ccccc3)[nH]c3ccccc23)C(=O)N1c1ccccc1 (stereo unspecified)", "Assigned Category": "False"}
{"Compound": "N/C(=N\\O)N/N=C/c1cccc(F)c1", "Assigned Category": "False"}
{"Compound": "Cc1ccc(S(=O)(=O)OC(c2ccc(Cl)cc2Cl)C2OC(=O)c3ccccc32)cc1 (stereo unspecified)", "Assigned Category": "False"}
{"Compound": "CC(=O)Nc1ccc(-c2nc3ccccc3s2)cc1Br", "Assigned Category": "False"}
{"Compound": "Nc1[nH]c(=O)[nH]c(=O)c1Cc1cccc(Cl)c1", "Assigned Category": "False"}
